The origin of these recorded values is the supplement of paper PMC10567573.

B1: CCND2 (parent)
chain: YFKCVQKDIQPYMRRMVATWMLEV

Variants of: B1
protocol: protein stability index of a GFP-peptide fusion (GPS, HEK-293T) (PSI 1-6); higher = more stable;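 note: lentivirally expressed fusions sorted by FACS into six bins by GFP to DsRed ratio, PSI derived from sequencing read proportions per bin multiplied by bin number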
conditionDetails: c terminus: a fixed tail appended
# protein stability index annotations

{"variant": "Y12D", "protein stability index": 3.35}
{"variant": "P11F", "protein stability index": 3.77}
{"variant": "W20G", "protein stability index": 1.95}
{"variant": "W20E", "protein stability index": 3.61}
{"variant": "A18L", "protein stability index": 3.85}
{"variant": "I9E", "protein stability index": 3.71}
{"variant": "R14Y", "protein stability index": 3.2}
{"variant": "M16S", "protein stability index": 2.58}
{"variant": "T19D", "protein stability index": 1.97}
{"variant": "F2R", "protein stability index": 2.33}
{"variant": "V5N", "protein stability index": 2.54}
{"variant": "Y12V", "protein stability index": 3.11}
{"variant": "D8Y", "protein stability index": 3.53}
{"variant": "M16H", "protein stability index": 2.35}
{"variant": "K3Y", "protein stability index": 3.04}
{"variant": "V17F", "protein stability index": 2.44}
{"variant": "W20L", "protein stability index": 4.58}
{"variant": "K3W", "protein stability index": 2.44}
{"variant": "W20I", "protein stability index": 2.57}
{"variant": "Y12N", "protein stability index": 2.38}
{"variant": "P11K", "protein stability index": 2.82}
{"variant": "A18T", "protein stability index": 3.65}
{"variant": "P11C", "protein stability index": 2.36}
{"variant": "R15V", "protein stability index": 3.01}
{"variant": "L22S", "protein stability index": 2.72}
{"variant": "R14A", "protein stability index": 3.47}
{"variant": "C4N", "protein stability index": 3.42}
{"variant": "K3V", "protein stability index": 3.12}
{"variant": "K7H", "protein stability index": 4.29}
{"variant": "M13T", "protein stability index": 2.96}
{"variant": "A18C", "protein stability index": 1.44}
{"variant": "Y1T", "protein stability index": 2.37}
{"variant": "C4S", "protein stability index": 3.14}
{"variant": "R15A", "protein stability index": 1.77}
{"variant": "I9Q", "protein stability index": 2.61}
{"variant": "Q10R", "protein stability index": 2.02}
{"variant": "T19W", "protein stability index": 2.88}
{"variant": "Q6W", "protein stability index": 1.64}
{"variant": "Q6I", "protein stability index": 1.91}
{"variant": "I9H", "protein stability index": 2.78}
{"variant": "I9V", "protein stability index": 1.06}
{"variant": "K3T", "protein stability index": 3.31}
{"variant": "I9K", "protein stability index": 1.52}
{"variant": "Y1C", "protein stability index": 1.94}
{"variant": "E23R", "protein stability index": 2.96}
{"variant": "T19M", "protein stability index": 1.84}
